Test system: K4 kissing-loop RNA reporter;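 also: bound reporter read as fluorescence of individual clusters on recovered sequencing chips by microscopy, with normalized cluster intensities fitted with a binding model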
ASSAY_OVERVIEW: apparent KD of K4 kissing-loop reporter; higher = weaker reporter binding
TEST_CONTEXT: Eterna round: R107; input ligand: tryptophan 2.4 mM
The following sequences are shown together with reported apparent KD of K4 kissing-loop reporter values.

| SEQUENCE | UNIT_OF_MEASURE | apparent KD of K4 kissing-loop reporter |
| --- | --- | --- |
| AGUCGAGAUUAUAGACUCGACAGGUCAGAAGGAGCGACGAAUUCGUCAGGUAGGUCGCUGACAUAGCAGUGAUGUUGCUAUACGG [Arg A SS t1] | nM | 126 |
| UGAUACCAGACUGAUACCAGCAAGUGAUGUUUGUUGAUCUAAAGCAGUCAAAGACUGCCUUGCCCUUGGCAGCAGUCUGGUAUCU [TheoBX 27 #SwitchBubble #StaticStem] | nM | 901 |
| UUCAGUGACAUACGAGUGAUGUUCGUAAUACGAGGACCGGUACGGCCGCCACUCGCACGUCGGCAGUUUGUUCAUGCAUCAGACU | nM | 514 |
| AAGGUCACUACUACAGUGAUGUUGUAGGAGCAGGAUAUGCAGAAAUGCAGAAGGGCUCGCUCCAGGUGACCGAAUGAAACAUUCA [Omei KL FMN A SS A v3] | nM | 501 |
